Reported values of z-score for individual entries
# assay_protocol: blockers of DNA damage checkpoint Chk1 activation – imaging, HeLa, hydroxyurea, phospho-Chk1 nuclear intensity, primary screen (AID 1187); further: test concentration not given here
# reported_conditions: hydroxyurea-induced phospho-Chk1 immunofluorescence imaging, higher = more signal
The response must contain the number and no unit.

{"compound": "C=C(CCCC)C(=O)CC[C@@H](OC(C)=O)c1ccc(CO)o1", "z-score": 0.245}

Ask: State its z-score: Cc1ccc(C2C3C(=O)CC4C(=O)N(c5ccccc5)C(=O)C4C3CN2S(=O)(=O)c2ccc(C)cc2)cc1 (centres undefined)
Result: 1

Ask: Fill in z-score for record C=CC[C@]1(C(=O)N2CCOCC2)N=C(c2ccc(OCCCO)cc2)O[C@H]1c1ccccc1N=[N+]=[N-]
Result: -0.67

Ask: Check the records and state z-score for [N-]=[N+]=NCc1ccccc1[C@@H]1OC(c2ccc(OCCCO)cc2)=N[C@]1(CCS(=O)(=O)c1ccccc1)C(N)=O
Result: 0.227
